Origin of measurements: patent US6492329B1

- Tested on: rat embrional fibroblasts (REF)
- assayProcedure: Number of REF cells throughout 72-hr incubation
- Type: cell-based
- assayContext: 72 hours of incubation
Entries and their number of REF cells (M ± m)

Solved cases below.
Reported number of REF cells (M ± m) ( NCCSSCCN [0.1% cystamine, 2,2′-Dithio-bis[ethylamine]] ) = 5048 ± 126 × 10^3 cells

Reported number of REF cells (M ± m) ( O=c1[nH]cnc2c1ncn2[C@@H]1O[C@H](CO)[C@@H](O)[C@H]1O [0.1% inosine, hypoxanthine-9-D-ribofuranoside] ) = 5034 ± 128 × 10^3 cells

Reported number of REF cells (M ± m) ( NCCSSCCNC(=O)CNC(=O)C(CSSCC(NC(=O)CCC(N)C(=O)O)C(=O)NCC(=O)O)NC(=O)CCC(N)C(=O)O (centres unmarked) ) = 5112 ± 168 × 10^3 cells

Next:
Reported number of REF cells (M ± m) ( C[S+](C)[O-] ) = 5298 ± 39 × 10^3 cells

Reported number of REF cells (M ± m) ( OO [0.003% H2O2, hydrogen peroxide] ) = 5059 ± 34 × 10^3 cells

* * *

Entries and their Mean survival time
- Tested on: leukemia L1210 cells
- assayProcedure: Leukemia L1210 in mice: ascitic fluid and survival (Example 14)
- assayContext: mice inoculated with leukemia L1210 cells
Reply: number alone, nothing else.

Reported Mean survival time ( O=c1[nH]cnc2c1ncn2[C@@H]1O[C@H](CO)[C@@H](O)[C@H]1O [0.1% inosine, hypoxanthine-9-D-ribofuranoside] ) = 9.8

Reported Mean survival time ( NCCSSCCNC(=O)CNC(=O)C(CSSCC(NC(=O)CCC(N)C(=O)O)C(=O)NCC(=O)O)NC(=O)CCC(N)C(=O)O (centres unmarked) [S-thioethylamine-GSSG + normal saline] ) = 19.2

Reported Mean survival time ( C[S+](C)[O-] [7% DMSO] ) = 10.2

Reported Mean survival time ( NCCSSCCN [0.1% cystamine, 2,2′-Dithio-bis[ethylamine]] ) = 10.2

Next:
Reported Mean survival time ( OO [0.003% H2O2, hydrogen peroxide] ) = 9.2

* * *

- Test system: e-ras cell line (REF transformed with E1A and ras-oncogene)
- assayProcedure: Number of clones of e-ras cells throughout 72-hr incubation
- Type: cell-based, rat
- assayContext: 72 hours of incubation
- Procedure: To this end, these substances had been incubated for 72 hours with cells of rat embrional fibroblasts (REF) and the same cells, transformed with adenoviral E1A gene in complementation with ras-oncogene (e-ras cell line). Subsequent evaluation of the cellularity of experimental samples was carried out by counting the quantity of cell per milliliter (for REF cell line) or clones in dish (for e-ras cell line). […]
measure: number of clones of e-ras cells (M ± m)
Reply: number alone, nothing else.

Solved cases below.
Reported number of clones of e-ras cells (M ± m) ( NCCSSCCN [0.1% cystamine, 2,2′-Dithio-bis[ethylamine]] ) = 258

Reported number of clones of e-ras cells (M ± m) ( C[S+](C)[O-] [7% DMSO] ) = 243

Reported number of clones of e-ras cells (M ± m) ( O=c1[nH]cnc2c1ncn2[C@@H]1O[C@H](CO)[C@@H](O)[C@H]1O [0.1% inosine, hypoxanthine-9-D-ribofuranoside] ) = 243

Reported number of clones of e-ras cells (M ± m) ( NCCSSCCNC(=O)CNC(=O)C(CSSCC(NC(=O)CCC(N)C(=O)O)C(=O)NCC(=O)O)NC(=O)CCC(N)C(=O)O (centres unmarked) [S-thioethylamine-GSSG in normal saline] ) = 112

# input for lookup
Reported number of clones of e-ras cells (M ± m) ( OO [0.003% H2O2, hydrogen peroxide] ) = 234

* * *

Entries and their Accumulation of ascitic (weight gain, %)
- Tested on: Erlich adenocarcinoma cells
- assayProcedure: Erlich adenocarcinoma in mice: ascitic fluid and survival (Example 14)
- assayContext: Erlich adenocarcinoma; number of injection 7
Number in %, nothing else.

Reported Accumulation of ascitic (weight gain, %) ( C[S+](C)[O-] ) = 24.6

Reported Accumulation of ascitic (weight gain, %) ( NCCSSCCN [0.1% cystamine, 2,2′-Dithio-bis[ethylamine]] ) = 25.8

Reported Accumulation of ascitic (weight gain, %) ( NCCSSCCNC(=O)CNC(=O)C(CSSCC(NC(=O)CCC(N)C(=O)O)C(=O)NCC(=O)O)NC(=O)CCC(N)C(=O)O (centres unmarked) ) = 10.2

Reported Accumulation of ascitic (weight gain, %) ( O=c1[nH]cnc2c1ncn2[C@@H]1O[C@H](CO)[C@@H](O)[C@H]1O [0.1% inosine, hypoxanthine-9-D-ribofuranoside] ) = 26.8

Reported Accumulation of ascitic (weight gain, %) ( OO [0.003% H2O2, hydrogen peroxide] ) = 27.2

* * *

- System: rat embrional fibroblasts (REF) after UV-irradiation
- assayProcedure: Number of REF cells after UV-irradiation
- Format: cell-based
- assayContext: 24 hours
Entries and their number of REF cells after UV-irradiation (M ± m)

Solved cases below.
Reported number of REF cells after UV-irradiation (M ± m) ( NCCSSCCNC(=O)CNC(=O)C(CSSCC(NC(=O)CCC(N)C(=O)O)C(=O)NCC(=O)O)NC(=O)CCC(N)C(=O)O (centres unmarked) ) = 422 ± 14 × 10^3 cells

Reported number of REF cells after UV-irradiation (M ± m) ( NCCSSCCN [0.1% cystamine, 2,2′-Dithio-bis[ethylamine]] ) = 523 ± 11 × 10^3 cells

Next:
Reported number of REF cells after UV-irradiation (M ± m) ( C[S+](C)[O-] ) = 420 ± 17 × 10^3 cells

Reported number of REF cells after UV-irradiation (M ± m) ( O=c1[nH]cnc2c1ncn2[C@@H]1O[C@H](CO)[C@@H](O)[C@H]1O [0.1% inosine, hypoxanthine-9-D-ribofuranoside] ) = 426 ± 24 × 10^3 cells

Reported number of REF cells after UV-irradiation (M ± m) ( OO [0.003% H2O2, hydrogen peroxide] ) = 365 ± 14 × 10^3 cells

* * *

Entries and their Accumulation of ascitic (weight gain, %)
- System: Erlich adenocarcinoma cells
- assayProcedure: Erlich adenocarcinoma in mice: ascitic fluid and survival (Example 14)
- assayContext: Erlich adenocarcinoma; number of injection 0
Number in %, nothing else.

Reported Accumulation of ascitic (weight gain, %) ( C[S+](C)[O-] ) = 0.5

# input for lookup
Reported Accumulation of ascitic (weight gain, %) ( OO [0.003% H2O2, hydrogen peroxide] ) = 0.9

* * *

- Tested on: Erlich adenocarcinoma cells
- assayProcedure: Erlich adenocarcinoma in mice: ascitic fluid and survival (Example 14)
- assayContext: Erlich adenocarcinoma; number of injection 0
measure: Accumulation of ascitic (weight gain, %)
Number in %, nothing else.

Solved cases below.
Result for O=c1[nH]cnc2c1ncn2[C@@H]1O[C@H](CO)[C@@H](O)[C@H]1O [0.1% inosine, hypoxanthine-9-D-ribofuranoside] , tested on Erlich adenocarcinoma cells, Accumulation of ascitic (weight gain, %): 0.8

Result for NCCSSCCN [0.1% cystamine, 2,2′-Dithio-bis[ethylamine]] , tested on Erlich adenocarcinoma cells, Accumulation of ascitic (weight gain, %): 0.6

# input for lookup
Result for NCCSSCCNC(=O)CNC(=O)C(CSSCC(NC(=O)CCC(N)C(=O)O)C(=O)NCC(=O)O)NC(=O)CCC(N)C(=O)O (stereo not drawn) , tested on Erlich adenocarcinoma cells, Accumulation of ascitic (weight gain, %): 0.8
